Source listed as patent US20250289808A1.

# Tested on: retinal degeneration mouse model
# methodSummary: Electroretinogram (ERG) in blue LED-induced retinal degeneration mouse model
# Assay type: in vivo, BALB/c mice
# testSettings: average of a-wave and b-wave; compound 24 nM, Eylea 25 mg/kg
measuredProperty: Wavelength enhanced multiple compared to a normal saline-treated group, Average value

The cases that follow already have their Wavelength enhanced multiple compared to a normal saline-treated group, Average value on record.
molecule	resultValue
CN1Cc2c(cccc2-c2ccccc2-c2ccc(CNCc3cnn(C)c3)o2)C1=O [Compound 18]	2.04
CNC(=O)C1(Cc2ccc(F)cc2)CCN(Cc2oc(-c3ccccc3-c3cccc4c3CN(C)C4=O)cc2C)CC1 [Compound 39]	1.36
CN1Cc2c(cccc2-c2ccccc2-c2ccc(CN3CCOCC3)o2)C1=O [Compound 13]	1.33
CNC(=O)C1(C)CN(Cc2ccc(-c3ccccc3-c3cccc4c3CN(C)C4=O)o2)CCC1O (centres unmarked) [Compound 25]	1.27
CCC1(C(=O)NC)CCCN(Cc2oc(-c3ccccc3-c3cccc4c3CN(C)C4=O)cc2C)C1 (centres unmarked) [Compound 40]	1.30

P: CN1Cc2c(cccc2-c2ccccc2-c2ccc(COCN3CCC(F)(F)CC3)o2)C1=O [Compound 37]
Q: CNC(=O)C1(Cc2ccc(F)cc2)CCN(Cc2ccc(-c3ccccc3-c3cccc4c3CN(C)C4=O)o2)CC1 [Compound 21]
Problem: Returns: the argument ( P or Q ) having the larger Wavelength enhanced multiple compared to a normal saline-treated group, Average value. Selection: enter the item's label.
Solution: Q
(Q: 2.30, P: 1.38)
